For each of the molecules below, state its Ki.
# test-target: Alpha-1A adrenergic receptor (Rattus norvegicus)
# Sequence (P43140 whole entry): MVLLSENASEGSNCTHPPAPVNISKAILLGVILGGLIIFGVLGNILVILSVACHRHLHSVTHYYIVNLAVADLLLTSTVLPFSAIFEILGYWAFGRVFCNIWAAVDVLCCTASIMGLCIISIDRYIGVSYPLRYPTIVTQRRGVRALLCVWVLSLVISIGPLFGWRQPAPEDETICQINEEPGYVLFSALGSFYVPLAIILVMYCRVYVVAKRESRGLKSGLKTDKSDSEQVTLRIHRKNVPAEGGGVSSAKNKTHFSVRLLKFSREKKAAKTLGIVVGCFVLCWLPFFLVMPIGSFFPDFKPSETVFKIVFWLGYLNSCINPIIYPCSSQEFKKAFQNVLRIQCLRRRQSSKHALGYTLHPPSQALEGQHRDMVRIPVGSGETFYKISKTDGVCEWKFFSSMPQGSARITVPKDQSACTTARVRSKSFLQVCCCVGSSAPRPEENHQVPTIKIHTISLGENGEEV
# experimental-details: DRUGMATRIX: Alpha-1A adrenergic receptor radioligand binding (ligand: prazosin)
# Type: cell membranes, Wistar, Submaxillary gland, Membrane
# condition-notes: Not Active = under 50% inhibition at 10 µM; read-out: Ki
Dear colleague, please send the value followed by its unit.

O=c1[nH]c2ccccc2n1CCCN1CCC(n2c(=O)[nH]c3cc(Cl)ccc32)CC1 ... 116 nM

Dear colleague, could you please provide Ki for the molecules listed below?
1. CC(C)C[C@H]1C(=O)N2CCC[C@H]2[C@]2(O)O[C@](NC(=O)[C@@H]3C=C4c5cccc6[nH]c(Br)c(c56)C[C@H]4N(C)C3)(C(C)C)C(=O)N12
2. CC(CCc1ccc(O)cc1)NCCc1ccc(O)c(O)c1 (stereo unspecified)
3. O=c1n(CCCN2CCN(c3cccc(Cl)c3)CC2)nc2ccccn12

a:
1. 2.82 nM
2. 45 nM
3. 47 nM

Dear colleague, could you please provide Ki for the molecules listed below?
1. OCCN1CCN(CCCN2c3ccccc3Sc3ccc(C(F)(F)F)cc32)CC1
2. CN1C[C@H](C(=O)N[C@]2(C)O[C@@]3(O)[C@@H]4CCCN4C(=O)[C@H](Cc4ccccc4)N3C2=O)C[C@@H]2c3cccc4[nH]cc(c34)C[C@H]21 [DIHYDROERGOTAMINE]

a:
1. 9.58 nM
2. 2.03 nM
